target: wild-type CFTR (Homo sapiens, UniProt P13569); assay: Macroscopic currents in excised inside-out patches from BHK-CFTR cells; assay type: biochemical; parameters: expressed in transfected cells; provided by J. Hanrahan (McGill University); settings: moderately phosphorylated wild-type channels; normalized to peak current at 10 μM; listed as NPPB-AM; read-out: EC50 of CFTR current stimulation (titration)
Sequence (P13569 whole entry): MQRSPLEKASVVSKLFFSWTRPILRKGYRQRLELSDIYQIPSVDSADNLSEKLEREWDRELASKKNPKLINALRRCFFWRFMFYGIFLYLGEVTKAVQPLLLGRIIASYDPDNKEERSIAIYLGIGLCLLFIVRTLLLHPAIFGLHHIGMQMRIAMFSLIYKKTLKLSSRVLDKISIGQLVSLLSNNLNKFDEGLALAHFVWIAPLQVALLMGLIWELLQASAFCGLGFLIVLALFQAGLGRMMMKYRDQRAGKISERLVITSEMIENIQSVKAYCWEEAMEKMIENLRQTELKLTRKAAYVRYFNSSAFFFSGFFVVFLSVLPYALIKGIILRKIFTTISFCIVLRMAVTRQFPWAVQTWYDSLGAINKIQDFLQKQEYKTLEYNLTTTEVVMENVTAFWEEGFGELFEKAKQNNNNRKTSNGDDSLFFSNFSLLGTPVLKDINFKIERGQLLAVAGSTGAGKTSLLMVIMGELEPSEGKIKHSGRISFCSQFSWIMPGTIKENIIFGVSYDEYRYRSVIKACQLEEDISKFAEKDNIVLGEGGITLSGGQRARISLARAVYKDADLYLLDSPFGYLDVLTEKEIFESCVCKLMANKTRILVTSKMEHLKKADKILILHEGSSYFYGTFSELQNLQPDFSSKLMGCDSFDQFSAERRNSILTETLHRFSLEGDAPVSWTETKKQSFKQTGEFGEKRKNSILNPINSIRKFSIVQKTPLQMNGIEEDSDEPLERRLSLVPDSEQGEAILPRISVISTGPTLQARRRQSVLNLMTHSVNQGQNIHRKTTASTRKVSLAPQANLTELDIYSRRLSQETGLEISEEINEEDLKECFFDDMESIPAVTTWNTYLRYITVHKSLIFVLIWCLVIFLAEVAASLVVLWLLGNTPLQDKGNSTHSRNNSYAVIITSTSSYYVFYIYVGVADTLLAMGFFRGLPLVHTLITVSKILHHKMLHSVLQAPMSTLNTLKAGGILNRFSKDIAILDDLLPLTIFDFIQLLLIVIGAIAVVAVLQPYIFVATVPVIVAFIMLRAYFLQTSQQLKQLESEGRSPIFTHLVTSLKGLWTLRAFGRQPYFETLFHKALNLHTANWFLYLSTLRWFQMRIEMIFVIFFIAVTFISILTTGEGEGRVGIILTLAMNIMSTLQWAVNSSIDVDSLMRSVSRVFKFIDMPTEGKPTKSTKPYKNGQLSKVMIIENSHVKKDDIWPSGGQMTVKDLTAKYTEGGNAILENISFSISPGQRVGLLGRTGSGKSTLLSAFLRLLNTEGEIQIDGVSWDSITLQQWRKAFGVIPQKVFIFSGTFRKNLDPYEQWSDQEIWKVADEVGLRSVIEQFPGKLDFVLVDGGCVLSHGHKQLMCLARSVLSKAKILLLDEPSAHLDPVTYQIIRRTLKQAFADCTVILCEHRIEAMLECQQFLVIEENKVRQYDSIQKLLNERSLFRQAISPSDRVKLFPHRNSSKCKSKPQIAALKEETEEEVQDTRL

test smiles: NC(=O)c1cc([N+](=O)[O-])ccc1NCCCc1ccccc1
value unit: nM
EC50: 960
